binders and their reported pKd
- Target Or System: T1, PDZD7_3, Q9H5P4
- T1 sequence (Q9H5P4 857-944, limits assumed, looked up): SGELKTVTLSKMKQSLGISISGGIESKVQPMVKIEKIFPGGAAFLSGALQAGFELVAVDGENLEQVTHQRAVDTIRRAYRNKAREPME
- Experiment: holdup assay
- Set-up: key: below the threshold = too weak to quantify, mostly under pKd 3.1 to 4
- Condition Summary: plain residues with an end cap or a label only (N-terminal biotin on a linker: ahx)
Enter the number alone.

TVICWPGSLV [LNX2, Q8N448] | 4.5
LSDPSVSTVV [GRIN1, Q05586;Q05586-2] | 4.54
RRRKRKRTYL [HPV49-L2, P36762] | 4.31

Determine its reported pKd: GYDWGPATDL [TJP3, O95049]
4.14

# return recorded pKd for entry HNAFLSVTTV [PDZRN4, Q6ZMN7]
4.71

Read the entry PSASCAVTAA [PDLIM4, P50479] and write its reported pKd.
3.48
